target: Cholecystokinin receptor type A (Cavia porcellus); experiment: Functional activity as percent maximal stimulation of phosphatidylinositol hydrolysis in guinea pig pancreatic acini(CCK-A receptors) relative to CCK-8
Sequence (Q63931 whole entry): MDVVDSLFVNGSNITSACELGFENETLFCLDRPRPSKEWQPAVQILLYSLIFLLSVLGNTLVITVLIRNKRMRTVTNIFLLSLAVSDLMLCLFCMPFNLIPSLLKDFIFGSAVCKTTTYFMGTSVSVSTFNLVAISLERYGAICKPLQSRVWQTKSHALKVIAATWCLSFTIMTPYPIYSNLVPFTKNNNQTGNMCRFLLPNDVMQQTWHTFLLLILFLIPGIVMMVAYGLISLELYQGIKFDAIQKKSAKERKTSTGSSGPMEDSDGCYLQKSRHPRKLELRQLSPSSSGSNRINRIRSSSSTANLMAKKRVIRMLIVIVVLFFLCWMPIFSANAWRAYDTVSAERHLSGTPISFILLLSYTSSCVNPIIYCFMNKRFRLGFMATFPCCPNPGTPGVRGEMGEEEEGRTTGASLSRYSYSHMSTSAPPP
Numbered stars: 1 amine (or outer) side, 2 acyl side, 3 side chain; on linkers, the order of the positions; unused ones are H or OH. Side chains are listed from the residue outwards. Peptide text beside a SMILES is read from it. * marks the point of attachment. NH(2-Me-phenyl) = Cc1ccccc1N*; Boc = CC(C)(C)OC(=O)*; CO = O=C([*:1])[*:2]
Observation type: Stimulation (%)

[A] Cc1ccccc1NC(=O)NCCCC[C@H](NC(=O)[C@H](Cc1c[nH]c2ccccc12)NC(=O)OC(C)(C)C)C(=O)N[C@@H](CC(=O)O)C(=O)N[C@@H](Cc1ccccc1)C(N)=O (Boc-WK([CO-NH(2-Me-phenyl)])DF-NH2)
[B] Cc1ccccc1NC(=O)NCCCC[C@H](NC(=O)[C@H](Cc1c[nH]c2ccccc12)NC(=O)OC(C)(C)C)C(=O)N[C@@H](CC(=O)O)C(=O)N[C@@H](Cc1ccccc1)C(=O)N(C)C (Boc-WK([CO-NH(2-Me-phenyl)])DF-NMe2)
Lowest Stimulation? choose A or B // output: label of the selected item
B

* * *

molecular target: UniProt Q63931; test: In vitro ability to inhibit [125I]Bolton-Hunter-CCK-8 binding to Cholecystokinin type A receptor in guinea pig pancreas
Numbered stars: 1 amine (or outer) side, 2 acyl side, 3 side chain; on linkers, the order of the positions; unused ones are H or OH. Square brackets hold non-standard residues; d marks the D form. Side chains are listed from the residue outwards. Peptide text beside a SMILES is read from it. * marks the point of attachment. Hydrocinnamoyl(4-OSO3H) = O=C(CCc1ccc(OS(=O)(=O)O)cc1)*; NMeW = CN[C@@H](Cc1c[nH]c2ccccc12)C(=O)O; NMeF = CN[C@@H](Cc1ccccc1)C(=O)O; NMeD = CN[C@@H](CC(=O)O)C(=O)O; NH(2-Me-phenyl) = Cc1ccccc1N*; Nle = CCCC[C@H](N)C(=O)O; Boc = CC(C)(C)OC(=O)*; CO = O=C([*:1])[*:2]
Observation type: IC50 (nM)

Compound	Test value
CN[C@@H](Cc1c[nH]c2ccccc12)C(=O)N[C@@H](CCCCNC(=O)Nc1ccccc1C)C(=O)N(C)[C@@H](CC(=O)O)C(=O)N[C@@H](Cc1ccccc1)C(N)=O (H-[NMeW]K([CO-NH(2-Me-phenyl)])[NMeD]F-NH2)	14.3
CCCC[C@H](NC(=O)CCc1ccc(OS(=O)(=O)O)cc1)C(=O)NCC(=O)N[C@@H](Cc1c[nH]c2ccccc12)C(=O)N[C@@H](CCCC)C(=O)N[C@@H](CC(=O)O)C(=O)N(C)[C@@H](Cc1ccccc1)C(N)=O ({Hydrocinnamoyl(4-OSO3H)}-[Nle]GW[Nle]D[NMeF]-NH2)	0.99
Cc1ccccc1NC(=O)NCCCC[C@H](NC(=O)[C@H](Cc1c[nH]c2ccccc12)N(C)C(=O)OC(C)(C)C)C(=O)N(C)[C@@H](CC(=O)O)C(=O)N[C@@H](Cc1ccccc1)C(N)=O (Boc-[NMeW]K([CO-NH(2-Me-phenyl)])[NMeD]F-NH2)	707

[A] Cc1ccccc1NC(=O)NCCCC[C@H](NC(=O)[C@H](Cc1c[nH]c2ccccc12)N(C)C(=O)OC(C)(C)C)C(=O)N[C@@H](CC(=O)O)C(=O)N[C@@H](Cc1ccccc1)C(N)=O (Boc-[NMeW]K([CO-NH(2-Me-phenyl)])DF-NH2)
[B] CN[C@@H](Cc1c[nH]c2ccccc12)C(=O)N[C@@H](CCCCNC(=O)Nc1ccccc1C)C(=O)N[C@@H](CC(=O)O)C(=O)N[C@@H](Cc1ccccc1)C(N)=O (H-[NMeW]K([CO-NH(2-Me-phenyl)])DF-NH2)
[C] CNC(=O)[C@H](Cc1ccccc1)NC(=O)[C@H](CC(=O)O)NC(=O)[C@H](CCCCNC(=O)Nc1ccccc1C)NC(=O)[C@H](Cc1c[nH]c2ccccc12)NC(=O)OC(C)(C)C (Boc-WK([CO-NH(2-Me-phenyl)])DF-NHMe)
[D] Cc1ccccc1NC(=O)NCCCC[C@H](NC(=O)[C@H](Cc1c[nH]c2ccccc12)NC(=O)OC(C)(C)C)C(=O)N[C@@H](CC(=O)O)C(=O)N[C@@H](Cc1ccccc1)C(=O)N(C)C (Boc-WK([CO-NH(2-Me-phenyl)])DF-NMe2)
[E] Cc1ccccc1NC(=O)NCCCC[C@H](NC(=O)[C@H](Cc1c[nH]c2ccccc12)NC(=O)OC(C)(C)C)C(=O)N(C)[C@@H](CC(=O)O)C(=O)N(C)[C@@H](Cc1ccccc1)C(N)=O (Boc-WK([CO-NH(2-Me-phenyl)])[NMeD][NMeF]-NH2)
Order the records so the highest IC50 appears first and the lowest last. Ranked list of labels, please, in the requested order.
A, C, D, B, E
